system: Phytophthora capsisi; test: In vitro percent disease control (radii of spore growth on agar); type: cell-based; settings: Phytophthora; 50 ppm; read-out: % controlled, Phy ca.
So basically: inhibition of growth at 50 ppm at 20% or higher? That is yes. Lower than 20%? That is no.

* C[Si](C)(C)C[Si](Cn1cncn1)(c1ccc(F)cc1)c1ccc(F)cc1 | no
* COc1ccc([Si](C)(Cn2cncn2)C[Si](C)(C)c2ccc(Cl)cc2)cc1 (stereo not drawn) | yes

Now consider a different compound.
Inquiry: Is reported inhibition of growth at 50 ppm greater than or equal to 20% here: C=CC[Si](C)(Cn1cncn1)C[Si](CC=C)(c1ccc(F)cc1)c1ccc(F)cc1 (stereo not drawn)
Reply text: yes

====

test system: Fusarium moniliforme; assay: In vitro percent disease control (radii of spore growth on agar); type: cell-based; settings: 100 ppm
Collected % controlled, Fu. mo. values appear next to each entry.
Number in %, nothing else.

• C[Si](C)(Cc1ccc(F)cc1)C[Si](C)(Cn1cncn1)c1ccc(F)cc1 (centres unmarked) = 41
• C[Si](C)(C[Si](Cn1cncn1)(c1ccc(F)cc1)c1ccc(F)cc1)c1ccc(-c2ccccc2)cc1 = 41
• C=CC[Si](C)(Cn1cncn1)C[Si](CC=C)(c1ccc(F)cc1)c1ccc(F)cc1 (centres unmarked) = 100
• C=CC[Si](C)(Cn1cncn1)C[Si](CC=C)(CC=C)c1ccc(F)cc1 (centres unmarked) = 60

Proceeding to the next molecule to report its % controlled, Fu. mo..
Just so you know, measured % controlled, Fu. mo. for CCOc1ccc([Si](C)(C)C[Si](C)(Cn2cncn2)c2ccc(F)cc2)cc1 (centres unmarked) came out at 63

====

test system: Fusarium moniliforme; assay: In vitro percent disease control (radii of spore growth on agar); type: cell-based; settings: 50 ppm
Collected % controlled, Fu. mo. values appear next to each entry.
Number in %, nothing else.

Examples from the recorded data:
* C=CC[Si](Cn1cncn1)(C[Si](CC=C)(c1ccccc1)c1ccc(-c2ccccc2)cc1)c1ccc(F)cc1 (stereo not drawn) | 61
* C=CC[Si](C)(Cn1cncn1)C[Si](CC=C)(c1ccccc1)c1ccc(F)cc1 (stereo not drawn) | 60

Proceeding to the next molecule to report its % controlled, Fu. mo..
Just so you know, measured % controlled, Fu. mo. for C=CC[Si](C)(Cn1cncn1)C[Si](CC=C)(CC=C)c1ccc(F)cc1 (stereo not drawn) came out at 60

====

tested on: Phytophthora capsisi; assay: In vitro percent disease control (radii of spore growth on agar); format: cell-based; conditions: Phytophthora; 50 ppm; read-out: % controlled, Phy ca.
Collected inhibition of growth at 50 ppm values appear next to each entry.
Form entry: enter the amount, then its unit.

- C[Si](C)(C)C[Si](Cn1cncn1)(c1ccc(Cl)cc1)c1ccc(Cl)cc1: 28%
- CCOc1ccc([Si](C)(C)C[Si](Cn2cncn2)(c2ccc(F)cc2)c2ccc(Cl)cc2)cc1 (stereo not shown): 23%
- C=CC[Si](C)(Cn1cncn1)C[Si](CC=C)(c1ccccc1)c1ccc(F)cc1 (stereo not shown): 65%
- C[Si](C)(C[Si](Cn1cncn1)(c1ccc(Cl)cc1)c1ccc(Cl)cc1)c1ccc(F)cc1: 6%
- C[Si](C)(C[Si](C)(Cn1cncn1)c1ccc(F)cc1)c1ccc(F)cc1 (stereo not shown): 3%

Just so you know, measured inhibition of growth at 50 ppm for C=CC[Si](C[Si](C)(Cn1cncn1)c1ccc(F)cc1)(c1ccc(F)cc1)c1ccc(F)cc1 (stereo not shown) came out at 50%

Just so you know, measured inhibition of growth at 50 ppm for C=CC[Si](C)(Cn1cncn1)C[Si](CC=C)(CC=C)c1ccc(F)cc1 (stereo not shown) came out at 55%

Just so you know, measured inhibition of growth at 50 ppm for CCOc1ccc([Si](C)(C)C[Si](C)(Cn2cncn2)c2ccc(F)cc2)cc1 (stereo not shown) came out at 50%

Just so you know, measured inhibition of growth at 50 ppm for C=CC[Si](C)(Cn1cncn1)C[Si](CC=C)(CC=C)CC=C (stereo not shown) came out at 45%

====

test system: Rhizopus sp.; experiment: In vitro percent disease control (radii of spore growth on agar); type: cell-based; conditions: Rhizopus, 100 ppm; read-out: % controlled, Rhi. sp.
Collected inhibition of growth at 100 ppm values appear next to each entry.

Examples from the recorded data:
• COc1ccc([Si](C)(Cn2cncn2)C[Si](C)(C)c2ccc(Cl)cc2)cc1 (centres unmarked) = 48%
• C[Si](C)(C[Si](Cn1cncn1)(c1ccc(F)cc1)c1ccc(F)cc1)c1ccc(Cl)cc1 = 89%
• C[Si](C)(C)C[Si](C)(Cn1cncn1)c1ccc(F)cc1 (centres unmarked) = 56%

Just so you know, measured inhibition of growth at 100 ppm for C[Si](C)(Cc1ccc(F)cc1)C[Si](C)(Cn1cncn1)c1ccc(F)cc1 (centres unmarked) came out at 24%

Just so you know, measured inhibition of growth at 100 ppm for C[Si](C)(C[Si](C)(Cn1cncn1)c1ccc(F)cc1)c1ccc(-c2ccccc2)cc1 (centres unmarked) came out at 50%

====

Collected inhibition of growth at 50 ppm values appear next to each entry.
tested on: Rhizopus sp.; test: In vitro percent disease control (radii of spore growth on agar); assay type: cell-based; settings: Rhizopus, 50 ppm; read-out: % controlled, Rhi. sp.
Number in %, nothing else.

Examples from the recorded data:
* C[Si](C)(C[Si](C)(Cn1cncn1)c1ccc(F)cc1)c1ccc(F)cc1 (stereo not drawn) | 24
* C=CC[Si](C)(Cn1cncn1)C[Si](CC=C)(c1ccccc1)c1ccc(-c2ccccc2)cc1 (stereo not drawn) | 40
* C[Si](C)(C)C[Si](C)(Cn1cncn1)c1ccc(F)cc1 (stereo not drawn) | 49

Just so you know, measured inhibition of growth at 50 ppm for C=CC[Si](C)(Cn1cncn1)C[Si](CC=C)(CC=C)CC=C (stereo not drawn) came out at 60

Just so you know, measured inhibition of growth at 50 ppm for C=CC[Si](C)(Cn1cncn1)C[Si](CC=C)(c1ccc(OCC)cc1)c1ccc(OCC)cc1 (stereo not drawn) came out at 80

Just so you know, measured inhibition of growth at 50 ppm for C=CC[Si](Cn1cncn1)(C[Si](CC=C)(c1ccc(F)cc1)c1ccc(-c2ccccc2)cc1)c1ccc(F)cc1 (stereo not drawn) came out at 56

====

System: Rhizopus sp.
Test: In vitro percent disease control (radii of spore growth on agar)
Format: cell-based
Settings: Rhizopus, 100 ppm; read-out: % controlled, Rhi. sp.
Protocol: The compounds of this invention were dissolved respectively in acetone in an amount equal to 10% of the final volume and then in purified water at the concentration of 100 ppm and 50 ppm. Each of the solution was mixed with potato-sucrose-agar medium in a 6" petri dish and one of the fungi was spotted at the center of the dish. The dish was incubated in growth room for several days. The percent disease control was derived from the radii of spore growth. […]
Collected inhibition of growth at 100 ppm values appear next to each entry.
Number in %, nothing else.

Examples from the recorded data:
- C=CC[Si](C)(Cn1cncn1)C[Si](CC=C)(c1ccccc1)c1ccc(F)cc1 (centres unmarked): 50
- COc1ccc([Si](Cn2cncn2)(C[Si](C)(C)c2ccc(Cl)cc2)c2ccc(Cl)cc2)cc1 (centres unmarked): 50
- C=CC[Si](Cn1cncn1)(C[Si](CC=C)(c1ccccc1)c1ccc(-c2ccccc2)cc1)c1ccc(F)cc1 (centres unmarked): 58
- C=CC[Si](C[Si](C)(Cn1cncn1)c1ccc(F)cc1)(c1ccc(F)cc1)c1ccc(F)cc1 (centres unmarked): 43
- C[Si](C)(C[Si](Cn1cncn1)(c1ccc(Cl)cc1)c1ccc(Cl)cc1)c1ccc(F)cc1: 32
- C=CC[Si](C[Si](C)(Cn1cncn1)c1ccc(OCC)cc1)(c1ccccc1)c1ccc(-c2ccccc2)cc1 (centres unmarked): 75

Just so you know, measured inhibition of growth at 100 ppm for C=CC[Si](C)(Cn1cncn1)C[Si](CC=C)(c1ccc(F)cc1)c1ccc(F)cc1 (centres unmarked) came out at 100

Just so you know, measured inhibition of growth at 100 ppm for CCOc1ccc([Si](C)(C)C[Si](C)(Cn2cncn2)c2ccc(F)cc2)cc1 (centres unmarked) came out at 43

Just so you know, measured inhibition of growth at 100 ppm for `C[Si](C)(C)C[Si](Cn1cncn1)(c1ccc(Cl)cc1)c1ccc(Cl)cc1` came out at 54

Just so you know, measured inhibition of growth at 100 ppm for C=CC[Si](C)(Cn1cncn1)C[Si](CC=C)(CC=C)c1ccc(F)cc1 (centres unmarked) came out at 58

Just so you know, measured inhibition of growth at 100 ppm for CCOc1ccc([Si](C)(C)C[Si](Cn2cncn2)(c2ccc(F)cc2)c2ccc(Cl)cc2)cc1 (centres unmarked) came out at 50

Just so you know, measured inhibition of growth at 100 ppm for `C[Si](C)(C)C[Si](Cn1cncn1)(c1ccc(F)cc1)c1ccc(F)cc1` came out at 29

Just so you know, measured inhibition of growth at 100 ppm for C=CC[Si](C[Si](C)(Cn1cncn1)c1ccc(F)cc1)(c1ccccc1)c1ccc(-c2ccccc2)cc1 (centres unmarked) came out at 100

Just so you know, measured inhibition of growth at 100 ppm for C=CC[Si](C)(Cn1cncn1)C[Si](CC=C)(CC=C)CC=C (centres unmarked) came out at 80

Just so you know, measured inhibition of growth at 100 ppm for C=CC[Si](CC=C)(Cn1cncn1)C[Si](CC=C)(c1ccc(F)cc1)c1ccc(-c2ccccc2)cc1 (centres unmarked) came out at 100

Just so you know, measured inhibition of growth at 100 ppm for C[Si](C)(C[Si](C)(Cn1cncn1)c1ccc(F)cc1)c1ccc(Cl)cc1 (centres unmarked) came out at 65

Just so you know, measured inhibition of growth at 100 ppm for CCOc1ccc([Si](C)(Cn2cncn2)C[Si](C)(C)c2ccc(F)cc2)cc1 (centres unmarked) came out at 32
